- Method notes: in vivo
- Test context: both, dog, serum, oral, 15 mg/kg BW
Metric: concentration at 3 h

Query block: Any idea what concentration at 3 h was measured for CC1=C(C(=O)O)N2C(=O)[C@@H](NC(=O)[C@H](N)c3ccccc3)[C@H]2SC1 ?
Result block: 13000 ng/mL

* * *

- Method notes: in vivo
- Test context: both, dog, serum, oral, 15 mg/kg BW
Metric: concentration at 0.5 h
Provide a numeric answer, followed by its unit.

Query block: Any idea what concentration at 0.5 h was measured for CC1=C(C(=O)O)N2C(=O)[C@@H](NC(=O)[C@H](N)c3ccccc3)[C@H]2SC1 ?
Result block: 4170 ng/mL

* * *

- Method notes: in vivo
- Test context: both, dog, serum, oral, 15 mg/kg BW
Metric: concentration at 1 h
Provide a numeric answer, followed by its unit.

Query block: Any idea what concentration at 1 h was measured for CC1=C(C(=O)O)N2C(=O)[C@@H](NC(=O)[C@H](N)c3ccccc3)[C@H]2SC1 [Cephalexin, cephalexin] ?
Result block: 10900 ng/mL

* * *

- Method notes: in vivo
- Test context: both, dog, serum, oral, 15 mg/kg BW
Metric: concentration at 8 h (ng/mL)
# output: bare number, implied unit ng/mL

Query block: Any idea what concentration at 8 h was measured for CC1=C(C(=O)O)N2C(=O)[C@@H](NC(=O)[C@H](N)c3ccccc3)[C@H]2SC1 [Cephalexin, cephalexin] ?
Result block: 3730

* * *

- Method notes: in vivo
- Test context: both, Labrador Retriever, dog, serum, oral, 15 mg/kg BW
Metric: concentration at 1 h (ng/mL)
# output: bare number, implied unit ng/mL

Query block: Any idea what concentration at 1 h was measured for CC1=C(C(=O)O)N2C(=O)[C@@H](NC(=O)[C@H](N)c3ccccc3)[C@H]2SC1 ?
Result block: 6280

* * *

- Method notes: in vivo
- Test context: both, dog, serum, oral, 15 mg/kg BW
Metric: concentration at 6 h (ng/mL)
# output: bare number, implied unit ng/mL

Query block: Any idea what concentration at 6 h was measured for CC1=C(C(=O)O)N2C(=O)[C@@H](NC(=O)[C@H](N)c3ccccc3)[C@H]2SC1 [Cephalexin, cephalexin] ?
Result block: 5910

* * *

- Method notes: in vivo
- Test context: both, dog, serum, oral, 15 mg/kg BW
Metric: concentration at 2 h
Provide a numeric answer, followed by its unit.

Query block: Any idea what concentration at 2 h was measured for CC1=C(C(=O)O)N2C(=O)[C@@H](NC(=O)[C@H](N)c3ccccc3)[C@H]2SC1 [Cephalexin, cephalexin] ?
Result block: 13700 ng/mL

* * *

- Method notes: Serum melatonin pharmacokinetics after oral melatonin, radioimmunoassay (Example 1)
- Format: in vivo, Dogs
- Test context: dog, serum; melatonin 1 mg/kg BW oral at 12:00 pm; sample 7:00 pm
Metric: concentration at 7 h (ng/mL)
# output: bare number, implied unit ng/mL

Query block: Any idea what concentration at 7 h was measured for COc1ccc2[nH]cc(CCNC(C)=O)c2c1 ?
Result block: 0.0885

* * *

- Method notes: in vivo
- Test context: both, Labrador Retriever, dog, serum, oral, 15 mg/kg BW
Metric: concentration at 2.5 h (ng/mL)
# output: bare number, implied unit ng/mL

Query block: Any idea what concentration at 2.5 h was measured for CC1=C(C(=O)O)N2C(=O)[C@@H](NC(=O)[C@H](N)c3ccccc3)[C@H]2SC1 ?
Result block: 12400
